assay_name: Nrf2 qHTS screen for inhibitors: counterscreen for cytotoxicity; note: potency is the fitted concentration of half-maximal effect
condition_parameters: A549 ARE-Fluc cells, CellTiter-Fluor viability, 18-24 h; series mostly up to 46 µM
Method: NIH Molecular Libraries Probe Production Network [MLPCN] NIH Chemical Genomics Center [NCGC] Assay Provider: Shyam Biswal, Johns Hopkins University […] A concentration-response assay was performed with A549 ARE_Fluc cells which are suspended in 5% FBS OPTI-MEM. […] The plate is then incubated at 37deg C at 5% CO2 for 30 minutes before they are read on the ViewLux (Perkin Elmer) for a fluorescent read Ex=405(10)/Em=525(10) for a 3 second exposure, 2x binning, and high gain. […]
About 610 (0.16%) of roughly 390,000 compounds were called active. Another 4% or so got no clear call; they are omitted. The sample as a whole holds a higher share of actives than the screen did.

| compound | Potency |
| --- | --- |
| COc1ccc(-c2nnc(SCC(=O)Nc3ccccc3C)o2)cc1OC | inactive |
| O=S(=O)(Nc1cccc2cccnc12)c1cccc2cccnc12 | inactive |
| COc1ccc(-c2ccc(OC)c(C3C4C=CCC(C)C4C(=O)N3Cc3ccccc3)c2)cc1C (stereo not drawn) | inactive |
| CCCCCCC1(C)NC(c2ccc3c(c2)OCO3)=CC(c2ccccc2O)N1 (stereo not drawn) | inactive |
| CCO/C=C1\C(=O)N(c2ccc(OCC)cc2)C(=O)c2ccccc21 | inactive |
| CCN1/C(=C/C(=S)Nc2ccccc2)Sc2ccccc21 | 16.4 µM (active) |
| CC(=O)Nc1ccc(C(=O)Nc2cccc(S(=O)(=O)NC3=NCCC3)c2)cc1 | inactive |
| COc1ccc(C2CC(O)(c3ccccc3)Oc3cc(C)cc(C)c32)cc1 (stereo not drawn) | inactive |
| COc1ccc(-c2nc(S(=O)(=O)c3ccccc3)c(N3CCCCC3)o2)cc1 | inactive |
| CC(=O)NC(c1cccs1)c1cc(Cl)c2cccnc2c1O (stereo not drawn) | inactive |
| CCN(CC)CCC(c1ccc2c(c1)OCO2)c1c(OC)cc(OC)c2c(-c3ccccc3)cc(=O)oc12 (stereo not drawn) | inactive |
| O=C(Nc1cccc(S(=O)(=O)Nc2ccc(Cl)cc2)c1)c1ccc2c(c1)OCCO2 | 16.4 µM (active) |
| COc1cc(F)c(S(=O)(=O)N2CCCN(S(=O)(=O)c3ccc(N)cc3)CC2)c(F)c1 | inactive |
| Cc1c(Cl)cccc1-c1ccc(CNCCCSc2nnnn2C)o1 | inactive |
| COc1ccc(C2/C=C\CN(Cc3ccco3)C(C)C(=O)N2Cc2ccc(F)cc2)cc1 (stereo not drawn) | inactive |
| CSc1ncc(Cl)c(C(=O)Nc2ccc(S(=O)(=O)N3CCCC(C)C3)cc2)n1 (stereo not drawn) | inactive |
| CC[n+]1cc(C)ccc1/C=C/c1ccc(N(C)C)cc1 | 9.2 µM (active) |
| O=[N+]([O-])c1ccc(S(=O)(=O)N2CCN(c3nc(-c4ccccc4)nc4ccccc34)CC2)cc1 | inactive |

----------
assay_name: Nrf2 qHTS screen for inhibitors: counterscreen for cytotoxicity
condition_parameters: A549 ARE-Fluc cells, CellTiter-Fluor viability, 18-24 h; series mostly up to 46 µM
Out of some 390,000 compounds screened, about 610 (0.16%) were called active. Not shown: some 4% with an inconclusive outcome. Shown is part of a subset that was picked to be rich in actives.

| smiles_repr | outcome |
| --- | --- |
| O=C1CN(Cc2ccccc2)S(=O)(=O)c2ccccc21 | inactive |
| CCc1ccc(NC(=O)N2CCN(C(=O)c3nsc4ccccc34)CC2)cc1 | inactive |
| CCOc1ccc(NC(=O)c2c(NCc3cccc(OC)c3OC)sc3c2CCC3)cc1 | inactive |
